# System: A2780cisR (ovarian carcinoma-cisPt resistance cell line)
# experimental-details: Cytotoxicity test, IC50 determination by MTT test
# Format: cell-based
# measurement-context: 24 hr incubation, 20000 cells/well, 10% serum, ethanol solutions; read-out: IC50 ± SD (MTT-Test), A2780cisR
readout-label: IC50 (µM)
Answers are plain numbers, in µM.

>>> print(df.to_string())
                                   compound                              assay_target  readout_label  unit_text  result_number
0  CCCCCCCCCCCCCCNCC(O)CCCCCCCCC (stereo not shown)  A2780cisR (ovarian carcinoma-cisPt resistance cell line)           IC50         µM              9

Next up:
INPUT: Lab request: please report IC50 under test system A2780cisR (ovarian carcinoma-cisPt resistance cell line) for CCCCCCCCCCCCNCC(O)CCCCCCCCC (stereo not shown)
OUTPUT: 4
